Hello, the source for this data is paper PMC7354843, in case you need it.

- PROCEDURE SUMMARY: In vivo pharmacokinetic study, plasma and liver, single oral dose in mice
- TEST PARAMETERS: male, ICR, mouse, plasma, 80 mg/kg
MEASURE NAME: Cmax

**Query** Given O=c1c2ccc(Oc3ccc(OC(F)(F)F)cc3)cc2[nH]c2cc(Cl)cc(F)c12 , state its recorded Cmax.
**Result** 17.2 ng/mL
